biological target: T1, Recombinant MBP-mutCALR Type 1 fusion protein (human); assay: SPR, IgG captured, 1:1 fit, Exp. 1
T1 construct: custom made at Cepter; also called recombinant mutCALR protein
QUANTITY NAME: Kd (nM)
Express the result in nM but write the number alone.

# BINDER, Kd [nM]
records = [
    ("anti-mutCALR antibody clone 33 (antibody, human IgG1, lambda, V domains shown, human IgG1) VH: QVQLVQSGAEVKKPGATVKISCKVSGYSFTDYFIHWVQQAPGKGLAWVGLVDPEDGETIYAEKFQGRVTITADTSTDTAYMELSSLRSEDTAVYYCATPGGILTDPDAFDIWGQGTMVTVSS VL: QSALTQPRSVSGSPGQSVTISCAGTGSDVGGYNHVSWYQHHPGKAPKLMIYDVNKRPSGVPDRFSGSKSGNTASLTISGLQAEDEADYYCSSYIPSSTRWVFGGGTKLTVLG", 16.2),
    ("anti-mutCALR antibody clone 23 (antibody, human IgG1, lambda, V domains shown, human IgG1) VH: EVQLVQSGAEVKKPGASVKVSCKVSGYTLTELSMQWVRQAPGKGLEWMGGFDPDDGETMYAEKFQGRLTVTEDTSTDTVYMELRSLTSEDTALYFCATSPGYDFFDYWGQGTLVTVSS VL: SYVLTQPPSVSVAPGQTARITCGGNNIGIKSVHWYQQKPGQAPVLVVYDDSDRPSGIPERFSGSNSGNTATLTINRVEAGDEADYYCQVWDSSNDLLIFGGGTKLTVLG", 4.37),
    ("anti-mutCALR antibody clone 16 (antibody, human IgG1, lambda, V domains shown, human IgG1) VH: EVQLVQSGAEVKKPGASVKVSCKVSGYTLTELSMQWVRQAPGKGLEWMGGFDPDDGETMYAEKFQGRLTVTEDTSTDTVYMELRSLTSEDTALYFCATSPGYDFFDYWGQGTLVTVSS VL: SYVLTQPPSVSVAPGKTARITCGGNNTGSKSVHWYQQKPGQAPVLVVYDDSDRPSGIPERFSGSNSGNTATLTINRVEAGDEADYYCQVWDSSNDLLIFGGGTKLTVLG", 12.5),
]

Recall and state the measured Kd for anti-mutCALR antibody clone 25 (antibody, human IgG1, lambda, V domains shown, human IgG1) VH: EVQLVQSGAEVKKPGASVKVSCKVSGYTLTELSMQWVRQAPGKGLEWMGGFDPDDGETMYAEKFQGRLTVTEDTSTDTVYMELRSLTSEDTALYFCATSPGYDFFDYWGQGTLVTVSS VL: SYELTQPPSVAVAPGQTARITCGGNNIGRKAVHWYQQKPGQAPVLVVYDDSDRPSGIPERFSGSNSGNTATLTINRVEAGDEADYYCQVWDSSNDLLIFGGGTKLTVLG . 6.64

Check the records and state Kd for anti-mutCALR antibody clone 53 (antibody, human IgG1, lambda, V domains shown, human IgG1) VH: QVQLVQSGAEVKKPGASVKVSCKVSGYTLTELSMHWVRQAPGKGLEWMGGFDPEDGETIYAQKFQGRVTMTEDTSTDTAYMELSSLRSEDTAVYYCATDIQGLAEFDYWGQGTLVTVSS VL: QSALTQPRSVSGSPGQSVTISCTGTNTDVGAYIDVSWYQQHPGKAPKLIIYDVSKWPSGVPDRFSGSKSGNTASLTISGLQAEDEADYYCCSYAGNHSFSFGGGTKVTVLG 10.2

Annotate the binder anti-mutCALR antibody clone 42 (antibody, human IgG1, lambda, V domains shown, human IgG1) VH: EVQLVQSGAEVKKPGASVKVSCKVSGYTLTELSMHWVRQAPGKGLEWMGLVDPEDGETIYAQKFQGRVTMTEDTSTDTAYMELSSLRSEDTAVYYCAREEWSGDGDDAFDIWGQGTMVTVSS VL: QSVLTQPPSVSAAPGQKVTISCSGSSSNIGSYSVSWYQQLPGTAPKLLIYDDNKRPSGIPDRFSGSNSGTSATLSITGLQTGDEADYYCGTWDSSLSAWVFGGGTKLTVLG with its measured Kd. 6.97

Return Kd for the following binder: anti-mutCALR antibody clone 32 (antibody, human IgG1, lambda, V domains shown, human IgG1) VH: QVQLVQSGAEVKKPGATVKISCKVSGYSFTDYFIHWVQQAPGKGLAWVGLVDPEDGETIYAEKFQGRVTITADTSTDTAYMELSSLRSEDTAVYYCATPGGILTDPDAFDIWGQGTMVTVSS VL: QSALTQPASVSGSPGQSITISCTGTSSDVGGYNYVSWYQQHPGKAPKLMIYEVSNRPSGVSNRFSGSKSGNTASLTISGLQAEDEADYYCSSYTSSSTPYVFGTGTKVTVLG 5.63

Consider the binder anti-mutCALR antibody clone 7 (antibody, human IgG1, lambda, V domains shown, human IgG1) VH: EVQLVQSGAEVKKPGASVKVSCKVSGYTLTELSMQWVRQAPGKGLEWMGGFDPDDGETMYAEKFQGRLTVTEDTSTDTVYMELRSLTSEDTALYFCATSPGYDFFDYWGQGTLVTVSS VL: SYVLTQPPSVSVAPGQTASITCVGTNFGSKNVHWYQQRPGQAPVLVVYDDSDRPSGIPERFSGSNSGNTATLTINRVEAGDEADYYCQVWDSSNDLLIFGGGTKLTVLG . State its measured Kd. 3.83

Give the reported Kd for this binder. anti-mutCALR antibody clone 51 (antibody, human IgG1, lambda, V domains shown, human IgG1) VH: EVQLVQSGAEVKKPGSSVKVSCKASGGTFSSYAISWVRQAPGQGLEWMGGIIPIFGTANYAQKFQGRVTITADESTSTAYMELSSLRSEDTAVYYCASSPLRGSGWYWHYYYGMDVWGQGTTVTVSS VL: SYELTQPPSVSVAPGKTARITCGGNKIGTKSVHWYQQKPGQAPVLVIYQDSKRPSGIPERFSGSNSGNTATLTISGTQAMDEADYYCQAWGSSTVVFGGGTKLTVLG 4.64

Answer with the recorded Kd for the binder listed here: anti-mutCALR antibody clone 4 (antibody, human IgG1, lambda, V domains shown, human IgG1) VH: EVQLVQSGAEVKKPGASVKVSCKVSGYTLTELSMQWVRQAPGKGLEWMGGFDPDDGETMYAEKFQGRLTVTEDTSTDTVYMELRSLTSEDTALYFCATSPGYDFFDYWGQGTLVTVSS VL: SYVLTQPPSVSVAPGQTARITCGGNNIGSKSVHWYQQKPGQAPVLVVYDDSDRPSGIPERFSGSNSGNTATLTINRVEAGDEADYYCQVWDSSNDLLIFGGGTKLTVLG 4.33
